TESTED_SYSTEM: T1, His-human LIGHT (human)
T1 construct: also called His-huLIGHT; free LIGHT
T1 chain: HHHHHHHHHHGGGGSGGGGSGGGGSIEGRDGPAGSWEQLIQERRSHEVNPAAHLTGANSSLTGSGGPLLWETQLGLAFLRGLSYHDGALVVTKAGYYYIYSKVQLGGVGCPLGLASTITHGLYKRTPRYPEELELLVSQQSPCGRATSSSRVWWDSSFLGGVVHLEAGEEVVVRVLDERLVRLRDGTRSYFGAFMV
MEASUREMENT_PROTOCOL: ELISA, His-huLIGHT coated
OUTCOME_MEASURE: EC50 (nM)
Please give a number only; it is taken to be in nM.

The cases that follow already have their EC50 on record.
[[record]]
binder = "hum_LT-m37-16 (antibody, human IgG4, V domains shown, humanized from LT-m37) VH: QVQLVQSGAEVKKPGASVKVSCKASGYSFTGYFINWVRQAPGQGLEWIGRIYPYNVDTFYNQNFKGRVTMTADKSTSTAYMELSSLRSEDTAVYYCGRGTHYYGSSGAMDYWGQGTLVTVSS VL: EIVLTQSPATLSVSPGERATLSCKASQNVGTAVAWYQQKPGQSPRLLIYSASNRYTGIPARFSGSGSGTEFTLTISSLQSEDFAVYYCQQYSSYPYTFGGGTKVEIK"
result_value = 0.0369

[[record]]
binder = "hum_LT-m37-15 (antibody, human IgG4, V domains shown, humanized from LT-m37) VH: QVQLVQSGAEVKKPGASVKVSCKASGYSFTGYFINWVRQAPGQGLEWIGRIYPYNVDTFYNQNFKGRATMTADKSTSTAYMELSSLRSEDTAVYYCGRGTHYYGSSGAMDYWGQGTLVTVSS VL: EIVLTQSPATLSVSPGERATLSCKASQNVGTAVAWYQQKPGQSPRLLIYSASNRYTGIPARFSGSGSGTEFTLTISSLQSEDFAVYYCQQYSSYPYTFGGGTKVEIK"
result_value = 0.0658


Record request: EC50 value, item hum_LT-m37-14 (antibody, human IgG4, V domains shown, humanized from LT-m37) VH: QVQLVQSGAEVKKPGASVKVSCKASGYSFTGYFINWVRQAPGQSLEWIGRIYPYNVDTFYNQNFKGRATLTADKSTSTAYMELSSLRSEDTAVYYCGRGTHYYGSSGAMDYWGQGTLVTVSS VL: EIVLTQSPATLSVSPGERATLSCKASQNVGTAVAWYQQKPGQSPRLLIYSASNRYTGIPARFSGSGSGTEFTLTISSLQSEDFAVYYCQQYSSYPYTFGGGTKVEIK
0.0464

What value of measured EC50 is listed for hum_LT-m37-13 (antibody, human IgG4, V domains shown, humanized from LT-m37) VH: QVQLVQSGAEVKKPGASVKVSCKASGYSFTGYFINWVRQAPGQGLEWIGRIYPYNVDTFYNQNFKGRVTMTADKSTSTAYMELSSLRSEDTAVYYCGRGTHYYGSSGAMDYWGQGTLVTVSS VL: EIVLTQSPATLSVSPGERATLSCKASQNVGTAVAWYQQKPGQSPRLLIYSASNRYTGIPARFSGSGSGTEFTLTISSLQSEDFAVYFCQQYSSYPYTFGGGTKVEIK ?
0.0422

Origin of the recorded values: patent EP4596580A1
